// provenance: patent US20170015742A1

molecular target: T1, Human VEGF-A 165 (human, UniProt P15692 207-395); assay: Biacore SPR (Example 1.1)
T1 construct: also called hVEGF165; huVEGF-A165
T1 sequence (P15692 other isoform, or with tags, fused parts or gaps limits assumed): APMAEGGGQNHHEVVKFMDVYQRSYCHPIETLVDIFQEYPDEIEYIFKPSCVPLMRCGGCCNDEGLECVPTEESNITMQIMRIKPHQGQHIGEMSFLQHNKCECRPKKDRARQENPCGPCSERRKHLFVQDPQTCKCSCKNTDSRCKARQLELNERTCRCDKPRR
Each record here notes measured kon.

[
  {
    "Binder": "BEW-9E3-B9 (antibody, IgG2a, V domains shown) VH: QIQLVQSGPELKKPGESVKISCKASGYTFTNYGMYWVKQAPGQGLQYMGWINTETGKPTYADDFKGRFVFFLETSASTAFLQINNLKNEDMATYFCARPSDYYDGFWFPYWGQGALVTVSS VL: DTILTQSPALAVSPGERISISCRASEGVNSYMHWYQQNPGQQPKLLIYKASNLASGVPARFSGSGSGTDFTLTIDPVEADDTATYFCQQSWNDPLTFGSGTKLEIK",
    "kon [M⁻¹ s⁻¹]": "6.7e+06"
  },
  {
    "Binder": "BEW-1B4-C4 (antibody, IgG2b, V domains shown, Rat hybridoma monoclonal antibody) VH: QIQLVQSGPELKKPGESVKISCKASGYSFTNYGMYWVKQAPGQGLQYMGWIDTETGKPTYTDDFKGRFVFFLETSASTAYLQINNLKNEDMATYFCARWSGDTAGIRGPWFAYWGQGTLVTVSS VL: DIRMTQSPASLSASLGETVNIECLASEDIYSDLAWYQQKPGKSPQLLIYNANDLQKGVPSRFSGSGSGTQYSLKINSLQSEDVATYFCQQYNYYPGTFGAGTKLELK",
    "kon [M⁻¹ s⁻¹]": "1.8e+07"
  }
]
